Data provenance: paper PMC6117704

biological target: rabbit-lung ACE (Oryctolagus cuniculus); construct: rabbit-lung ACE and Sephadex G-15 were purchased from Sigma Chemical Ltd; purchased Sigma Chemical Ltd (St. Louis, MO, USA); host or cells: rabbit lung tissue; experiment: ACE-inhibitory activity of synthetic peptides; assay type: biochemical; conditions: synthesized peptides; HHL substrate (8.3 mM Hip-His-Leu in 50 mM sodium borate, 0.5 M NaCl, pH 8.3), ACE 25 mU/mL, pre-incubation 37 °C 10 min, 60 min, UV 228 nm; mean ± SD (n = 3)
Sequence (P12822 34-1310): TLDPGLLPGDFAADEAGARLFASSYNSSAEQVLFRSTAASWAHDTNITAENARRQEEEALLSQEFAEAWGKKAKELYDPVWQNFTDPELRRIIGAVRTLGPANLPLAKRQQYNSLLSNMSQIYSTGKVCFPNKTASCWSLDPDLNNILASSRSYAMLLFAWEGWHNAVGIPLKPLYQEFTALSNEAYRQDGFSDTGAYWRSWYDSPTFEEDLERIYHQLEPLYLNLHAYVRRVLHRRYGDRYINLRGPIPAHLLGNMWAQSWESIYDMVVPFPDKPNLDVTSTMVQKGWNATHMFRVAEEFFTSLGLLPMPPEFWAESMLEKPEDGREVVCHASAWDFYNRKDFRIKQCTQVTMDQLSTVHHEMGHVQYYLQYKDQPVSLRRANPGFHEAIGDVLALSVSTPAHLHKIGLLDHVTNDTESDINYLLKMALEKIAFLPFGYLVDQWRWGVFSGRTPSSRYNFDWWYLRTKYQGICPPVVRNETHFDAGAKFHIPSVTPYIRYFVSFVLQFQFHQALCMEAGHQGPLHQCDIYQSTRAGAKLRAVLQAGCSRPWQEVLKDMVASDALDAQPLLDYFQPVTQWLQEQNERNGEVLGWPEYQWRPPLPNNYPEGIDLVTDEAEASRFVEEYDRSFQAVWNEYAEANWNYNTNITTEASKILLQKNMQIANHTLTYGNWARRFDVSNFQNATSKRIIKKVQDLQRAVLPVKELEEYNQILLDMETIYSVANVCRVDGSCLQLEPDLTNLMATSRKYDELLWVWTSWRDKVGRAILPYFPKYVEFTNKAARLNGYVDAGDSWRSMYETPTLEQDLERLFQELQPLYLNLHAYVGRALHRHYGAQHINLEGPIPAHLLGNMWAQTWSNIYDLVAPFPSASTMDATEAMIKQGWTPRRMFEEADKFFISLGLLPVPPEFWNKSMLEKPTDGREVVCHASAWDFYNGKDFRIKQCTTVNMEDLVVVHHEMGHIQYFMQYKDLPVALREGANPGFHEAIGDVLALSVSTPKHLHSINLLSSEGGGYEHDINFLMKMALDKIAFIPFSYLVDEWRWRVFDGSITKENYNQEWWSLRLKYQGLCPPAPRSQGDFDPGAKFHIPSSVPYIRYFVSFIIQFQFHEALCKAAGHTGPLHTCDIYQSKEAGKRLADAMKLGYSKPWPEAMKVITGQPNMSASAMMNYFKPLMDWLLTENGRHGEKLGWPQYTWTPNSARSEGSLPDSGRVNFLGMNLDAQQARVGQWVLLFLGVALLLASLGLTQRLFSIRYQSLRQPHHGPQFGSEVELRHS
Peptide text beside a SMILES is read from it.
Exercise: for every item that follows, state its recorded IC50.
Give bare numbers, in µM.

Worked set:
CC(C)C[C@H](NC(=O)[C@@H](N)CC(N)=O)C(=O)NCC(=O)O [NLG] (H-Asn-Leu-Gly-OH)	17.4
CC(C)[C@H](NC(=O)[C@H](CC(N)=O)NC(=O)[C@@H]1CCCN1)C(=O)N[C@@H](C)C(=O)O [PNVA] (H-PNVA-OH)	8.18
CC(C)[C@H](NC(=O)[C@@H](N)CC(N)=O)C(=O)N[C@@H](C)C(=O)O [NVA] (H-Asn-Val-Ala-OH)	12.7

Item CC(C)C[C@H](NC(=O)[C@H](CC(N)=O)NC(=O)[C@@H]1CCCN1)C(=O)NCC(=O)O [PNLG] (H-PNLG-OH) has what recorded IC50?
13.2
